B1: E3 ubiquitin-protein ligase NEDD4, residues 836 to 881; numbered along this chain, P46934 (parent)
chain: EIEQGFLPKGWEVRHAPNGRPFFIDHNTKTTTWEDPRLKIPAHLRG

- Variants of: B1
- protocolSummary: abundance fitness (aPCA) (normalised: wild type 0, dead -1); higher = more abundant; growth selection in yeast, the domain comes from the species named
- experimentalSetup: Homo sapiens
quantityMeasured: abundance fitness

[
  {
    "mutationLabel": "P41I",
    "quantityMeasured": "abundance fitness",
    "reported": 0.029
  },
  {
    "mutationLabel": "P21T",
    "quantityMeasured": "abundance fitness",
    "reported": -0.451
  },
  {
    "mutationLabel": "H43L",
    "quantityMeasured": "abundance fitness",
    "reported": -0.107
  },
  {
    "mutationLabel": "G19H",
    "quantityMeasured": "abundance fitness",
    "reported": -0.496
  },
  {
    "mutationLabel": "F22I",
    "quantityMeasured": "abundance fitness",
    "reported": -0.168
  },
  {
    "mutationLabel": "T32L",
    "quantityMeasured": "abundance fitness",
    "reported": -0.85
  },
  {
    "mutationLabel": "W33F",
    "quantityMeasured": "abundance fitness",
    "reported": -0.142
  },
  {
    "mutationLabel": "P36G",
    "quantityMeasured": "abundance fitness",
    "reported": -0.927
  },
  {
    "mutationLabel": "D35Y",
    "quantityMeasured": "abundance fitness",
    "reported": -0.906
  },
  {
    "mutationLabel": "K39M",
    "quantityMeasured": "abundance fitness",
    "reported": -0.101
  },
  {
    "mutationLabel": "D35P",
    "quantityMeasured": "abundance fitness",
    "reported": -0.582
  }
]
